- Test: Phosphate-binding assay in phosphate-binding solution (PBS) simulating small intestinal fluid (SIF)
- Condition description: Table 3; 20 mg binder in 4.0 mL PBS, 1 h, room temperature
Observation type: PO4 binding

> print(dat)
                                   compound  observation.type    result
1  O=C([O-])c1cccnc1.O=C([O-])c1cccnc1.[Mg+2] [Mg nicotinate]       PO4 binding    4 mg/g
2  [Mg+2].[OH-].[OH-] [Mg(OH)2, magnesium hydroxide]       PO4 binding  182 mg/g
3  O=C([O-])/C=C/C(=O)[O-].[Mg+2] [Mg fumarate]       PO4 binding    4 mg/g
4  CC(O)C(=O)[O-].CC(O)C(=O)[O-].[Mg+2] (stereo not shown) [Mg lactate]       PO4 binding   15 mg/g
5  O=C1O[C@H]([C@@H](O)CO)C(O)=C1[O-].O=C1O[C@H]([C@@H](O)CO)C(O)=C1[O-].[Mg+2] [Mg ascorbate]       PO4 binding    4 mg/g

I have 4 compounds here; please give me PO4 binding for each one.
1. [Cl-].[Cl-].[Mg+2] [Mg chloride, magnesium chloride]
2. CCC(=O)[O-].CCC(=O)[O-].[Mg+2] [Mg propionate, magnesium propionate]
3. O=C([O-])CCCCC(=O)[O-].[Mg+2] [Mg adipate]
4. O=C([O-])c1cc(=O)[nH]c(=O)[nH]1.O=C([O-])c1cc(=O)[nH]c(=O)[nH]1.[Mg+2] [Mg orotate]

Outgoing:
["4 mg/g", "59 mg/g", "6 mg/g", "20 mg/g"]

---

- Test: Phosphate-binding assay in phosphate-binding solution (PBS) simulating small intestinal fluid (SIF)
- Condition description: Table 2; 20 mg binder in 4.0 mL PBS, 1 h, room temperature
Provide the recorded PO4 binding for the entries that follow.
Answers are plain numbers, in mg/g.

Field: example entries. Status: answers known.
> print(dat)
                                   compound  observation.type  result.number
1           [O]=[Mg] [MgO, magnesium oxide]       PO4 binding          184.0
2  O=C([O-])[O-].[Ca+2] [CaCO3, calcium carbonate, reference compound]       PO4 binding           10.9

I have 4 compounds here; please give me PO4 binding for each one.
1. O=C([O-])CC(O)(CC(=O)[O-])C(=O)[O-].O=C([O-])CC(O)(CC(=O)[O-])C(=O)[O-].[Mg+2].[Mg+2].[Mg+2] [Mg citrate]
2. [Mg+2].[OH-].[OH-] [Mg(OH)2, magnesium hydroxide]
3. O.O.O.O.O.O.O.O=S(=O)([O-])[O-].[Mg+2]
4. O=C([O-])[O-].[Mg+2] [MgCO3, magnesium carbonate]

Outgoing:
[16.3, 176.2, 19.0, 19.0]

---

- Test: Phosphate-binding assay in phosphate-binding solution (PBS) simulating small intestinal fluid (SIF)
- Condition description: Table 3; 20 mg binder in 4.0 mL PBS, 1 h, room temperature
Classify: label 1 when PO4 binding is strictly less than 20 mg/g; label 0 when PO4 binding is not.

Past entries and their recorded results:
> print(dat)
                                   molecule  assigned.class
1  O=C([O-])/C=C\C(=O)[O-].[Mg+2] [Mg maleate]         label 1
2  N[C@@H](CC(=O)[O-])C(=O)[O-].[Mg+2] [Mg aspartate, magnesium aspartate]         label 0

Incoming: Check if PO4 binding falls below 20 mg/g for O=C([O-])[O-].[Mg+2] [MgCO3, magnesium carbonate] .
Outgoing: label 0

Incoming: Try the molecule O=C([O-])C(O)C(O)C(=O)[O-].[Mg+2] (stereo not shown) [Mg tartrate, magnesium tartrate]
Outgoing: label 0

Incoming: Try the molecule O=C([O-])CC(O)(CC(=O)[O-])C(=O)[O-].O=C([O-])CC(O)(CC(=O)[O-])C(=O)[O-].[Mg+2].[Mg+2].[Mg+2] [Mg citrate]
Outgoing: label 1

Where do these numbers come from? They come from patent US9889157B2.
